- Assay Target: 5-hydroxytryptamine receptor 6 (Homo sapiens, UniProt P50406)
- Sequence (P50406 whole entry): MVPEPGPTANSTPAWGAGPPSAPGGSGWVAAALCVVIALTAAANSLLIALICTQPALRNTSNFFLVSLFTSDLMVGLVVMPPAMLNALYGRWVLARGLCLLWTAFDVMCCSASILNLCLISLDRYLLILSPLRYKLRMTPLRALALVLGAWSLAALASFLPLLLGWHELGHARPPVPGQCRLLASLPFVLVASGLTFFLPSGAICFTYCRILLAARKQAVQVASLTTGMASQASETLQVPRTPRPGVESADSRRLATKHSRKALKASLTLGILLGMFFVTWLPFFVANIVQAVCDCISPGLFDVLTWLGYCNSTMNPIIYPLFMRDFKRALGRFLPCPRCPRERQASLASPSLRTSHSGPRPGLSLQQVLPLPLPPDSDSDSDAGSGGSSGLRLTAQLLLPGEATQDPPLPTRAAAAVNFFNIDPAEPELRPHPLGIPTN
- Assay Summary: Displacement of [3H]LSD from human recombinant 5-HT6 receptor expressed in HEK293 cells incubated for 60 mins by microbeta plate reader based method
- Type: cell-based
We begin with a simple list: items and their reported Ki.
Express it in nM; write the number only.

Check out these entries, answers already filled in.
{"Smiles Input": "Cn1c(=O)c2c(nc3n(CCCCN4CCN(c5ccc(Cl)cc5)CC4)c(-c4ccccc4)cn23)n(C)c1=O", "Ki (nM)": 447}
{"Smiles Input": "Cc1cn2c3c(=O)n(C)c(=O)n(C)c3nc2n1CCCCCN1CCN(c2ccc(Cl)cc2)CC1", "Ki (nM)": 837}

Consider the record given below.
Exercise: Quick one: Ki for Cc1cccc(N2CCN(CCCCn3c(C)cn4c5c(=O)n(C)c(=O)n(C)c5nc34)CC2)c1C ?
Key: 510

====

- Assay Target: 5-hydroxytryptamine receptor 7 (Homo sapiens, UniProt P34969)
- Sequence (P34969 whole entry): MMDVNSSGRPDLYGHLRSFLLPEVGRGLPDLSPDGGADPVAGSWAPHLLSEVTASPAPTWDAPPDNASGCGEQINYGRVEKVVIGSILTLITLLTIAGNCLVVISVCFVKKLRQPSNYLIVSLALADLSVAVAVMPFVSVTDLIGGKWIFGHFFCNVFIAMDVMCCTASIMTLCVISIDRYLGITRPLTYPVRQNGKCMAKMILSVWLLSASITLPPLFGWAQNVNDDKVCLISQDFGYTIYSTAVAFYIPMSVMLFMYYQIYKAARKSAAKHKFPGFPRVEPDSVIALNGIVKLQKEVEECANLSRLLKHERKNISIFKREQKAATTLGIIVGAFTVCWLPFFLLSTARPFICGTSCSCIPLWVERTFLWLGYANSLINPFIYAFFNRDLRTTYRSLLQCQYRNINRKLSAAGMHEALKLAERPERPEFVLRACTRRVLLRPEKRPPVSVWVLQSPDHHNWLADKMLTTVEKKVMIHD
- Assay Summary: Displacement of [3H]LSD from human recombinant 5-HT7 receptor expressed in CHOK1 cells incubated for 60 mins by microbeta plate reader based method
We begin with a simple list: items and their reported Ki.
Express it in nM; write the number only.

Check out these entries, answers already filled in.
{"Smiles Input": "Cc1cccc(N2CCN(CCCCn3c(C)cn4c5c(=O)n(C)c(=O)n(C)c5nc34)CC2)c1C", "Value Unit": "nM", "Ki": 381}
{"Smiles Input": "Cn1c(=O)c2c(nc3n(CCCCN4CCN(c5ccccc5O)CC4)ccn23)n(C)c1=O", "Value Unit": "nM", "Ki": 1360}
{"Smiles Input": "Cn1c(=O)c2c(nc3n(CCCCN4CCN(c5ccccc5O)CC4)c(-c4ccccc4)cn23)n(C)c1=O", "Value Unit": "nM", "Ki": 30}

Exercise: Quick one: Ki for Cn1c(=O)c2c(nc3n(CCCCCN4CCN(c5ccc(Cl)cc5)CC4)c(-c4ccccc4)cn23)n(C)c1=O ?
Key: 122

====

- Assay Target: 5-hydroxytryptamine receptor 6 (Homo sapiens, UniProt P50406)
- Assay Summary: Displacement of [3H]LSD from human recombinant 5-HT6 receptor expressed in HEK293 cells assessed as total radioligand binding at 1.66 x 10^-7 M incubated for 60 mins by microbeta plate reader based method
- Format: cell-based
Readout: Activity (%)
Express it in %; write the number only.

Check out these entries, answers already filled in.
{"Molecule": "Cn1c(=O)c2c(nc3n(CCCCN4CCN(c5ccc(Cl)c(Cl)c5)CC4)ccn23)n(C)c1=O", "Value Unit": "%", "Activity": 91}
{"Molecule": "Cc1cccc(N2CCN(CCCCn3ccn4c5c(=O)n(C)c(=O)n(C)c5nc34)CC2)c1C", "Value Unit": "%", "Activity": 91}
{"Molecule": "Cc1cn2c3c(=O)n(C)c(=O)n(C)c3nc2n1CCCCN1CCN(c2ccc(Cl)c(Cl)c2)CC1", "Value Unit": "%", "Activity": 110}

Exercise: Quick one: Activity for Cn1c(=O)c2c(nc3n(CCCCCN4CCN(c5ccc(Cl)c(Cl)c5)CC4)ccn23)n(C)c1=O ?
Key: 90

Exercise: Quick one: Activity for Cn1c(=O)c2c(nc3n(CCCCN4CCN(c5ccccc5O)CC4)c(=O)ccn23)n(C)c1=O ?
Key: 100

Exercise: Quick one: Activity for CSc1ccc2c(c1)C(N1CCN(C)CC1)Cc1ccccc1S2 (configuration not stated) ?
Key: 3
